Test: in vitro
Details: human, hela cells, % viability
Entries and their measured viability at 28.5 h, 10 µM follow.
Quick reminder: number only, in %, skip the unit.

// solved cases for viability at 28.5 h, 10 µM follow
CC(=O)Nc1ccc(-c2ccc(COC3CCN(C(=O)c4ccc(Cl)c(Cl)c4)CC3)cc2)cc1 [CBK149215] | 89.3
Cn1c2ccc(Br)cc2c2nnc(SCC(=O)N3c4ccccc4Sc4ccccc43)nc21 [CBK263900] | 88.7
O=C(O)CCCN1C(=O)/C(=C/c2c[nH]c3ccccc23)SC1=S [CBK262580] | 119
Cc1c(CNc2nnc(C(C)(C)C)o2)cnn1C [CBK306439] | 83.5
O=C(O)c1ccc(-n2cccc2)cc1 [CBK016141] | 110
Cc1nnc(SCc2nc(N)nc(Nc3ccccc3)n2)s1 [CBK266436] | 109

Q: Kindly indicate its recorded viability at 28.5 h, 10 µM. Item: Cc1cc(C(=O)Nc2nnc(Cc3ccccc3)s2)c2ccccc2n1 [CBK295607]
Ans: 93.3

Q: Kindly indicate its recorded viability at 28.5 h, 10 µM. Item: c1ccc2c(CNCc3ccc4c(c3)OCO4)c[nH]c2c1 [CBK262159]
Ans: 89.5

Q: Kindly indicate its recorded viability at 28.5 h, 10 µM. Item: O=C1c2ccc(Oc3ccc4c(c3)C(=O)N(c3cccnc3)C4=O)cc2C(=O)N1c1cccnc1 [CBK262773]
Ans: 88.6
